Entry source: ChEMBL document CHEMBL1153198

# measured_target: Transforming protein RhoA/Rho-related GTP-binding protein RhoC (Homo sapiens, UniProt P61586+P08134)
# protocol_details: Inhibition of RhoA/C-mediated transcriptional response in human PC3 cells by serum response factor-luciferase reporter gene assay
# Type: cell-based
# condition: pc-3
Would you kindly list IC50 for each of these molecules?
Give bare numbers, in µM.

>>> print(df.to_string())
                              line_notation  quantity_name  measurement_unit   val
0  O=C(Nc1cc(C(F)(F)F)cc(C(F)(F)F)c1)C1CCN(C(=O)c2ccc(Cl)cc2)CC1           IC50                µM    10
1  O=C(c1cc(C(F)(F)F)cc(C(F)(F)F)c1)N1CCC(Nc2ccc(Cl)cc2)CC1           IC50                µM  10.8

In plain terms, `O=C(CNC(=O)c1cc(C(F)(F)F)cc(C(F)(F)F)c1)Nc1ccc(Cl)cc1` has a documented IC50 of 33

---

# measured_target: Transforming protein RhoA/Rho-related GTP-binding protein RhoC (Homo sapiens, UniProt P61586+P08134)
# protocol_details: Inhibition of RhoA/C-mediated transcriptional response in human PC3 cells by serum response factor-luciferase reporter gene assay
# Format: cell-based
# condition: pc-3
So basically, if IC50 comes in under 5 µM it's 1, and if it's 5 µM or more it's -1.

Query: Confirm or reject: IC50 of `O=C(CONC(=O)c1cccc(C(F)(F)F)c1)Nc1ccc(Cl)cc1` lies strictly below 5 µM
Response: -1

Query: Input O=C(CC1CC(c2cc(C(F)(F)F)cc(C(F)(F)F)c2)=NO1)Nc1ccc(Cl)cc1 (stereo not given) ; condition: IC50 strictly below 5 µM. Does it hold?
Response: 1

---

# Test system: PC-3
# protocol_details: Cytotoxicity against human PC3 cells assessed as inhibition of mitochondrial metabolism at 10 uM by WST-1 assay
# Format: functional
quantity_name: inhibition at 10 µM

Illustrative cases are given below, each with its answer.
>>> df
                              line_notation        quantity_name  val
0  O=C(CONC(=O)c1ccc(C(F)(F)F)cc1)Nc1ccc(Cl)cc1  inhibition at 10 µM   0%
1  O=C(CONC(=O)c1cc(C(F)(F)F)cc(C(F)(F)F)c1)Nc1ccccc1  inhibition at 10 µM   0%
2  O=C(Nc1cc(C(F)(F)F)cc(C(F)(F)F)c1)C1CCN(C(=O)c2ccc(Cl)cc2)CC1  inhibition at 10 µM  10%
3  O=C(c1cc(C(F)(F)F)cc(C(F)(F)F)c1)N1CCC(Nc2ccc(Cl)cc2)CC1  inhibition at 10 µM  19%

Shift focus to the following entry.
Entry `O=C(CONC(=O)c1cccc(C(F)(F)F)c1)Nc1ccc(Cl)cc1` , inhibition at 10 µM reported as 0%

---

# measured_target: Transforming protein RhoA/Rho-related GTP-binding protein RhoC (Homo sapiens, UniProt P61586+P08134)
# protocol_details: Inhibition of RhoA/C-mediated transcriptional response in human PC3 cells by serum response factor-luciferase reporter gene assay
# Type: cell-based
# condition: pc-3
quantity_name: IC50 (µM)
Answers are plain numbers, in µM.

Hey, can you go through the list below and give me IC50 for every item?
1. O=C(NCCC(=O)N1CCc2cc(Cl)ccc21)c1cc(C(F)(F)F)cc(C(F)(F)F)c1
2. O=C(CCCNC(=O)c1cc(C(F)(F)F)cc(C(F)(F)F)c1)Nc1ccc(Cl)cc1
3. O=C(CC1CCCCN1C(=O)c1cc(C(F)(F)F)cc(C(F)(F)F)c1)Nc1ccc(Cl)cc1 (stereo not given)

Response:
[13, 21, 9.5]
